Just for reference, ChEMBL document CHEMBL1157589 is where these values come from.

test system: Pichia kudriavzevii; assay: Antifungal activity against Candida krusei E28 after 48 hrs by microdilution method; assay type: functional; conditions: E28, 48 h
I'd be grateful if you could share measured MIC80 for these entries.

CC(=O)OC/C=C1/C=C(c2ccc(Br)cc2)C(=O)O1 yielded MIC80 of 62.5 µM

MIC80 reading for O=C1OC(COc2cccc(C(=O)O)c2)C=C1c1ccc(Br)cc1 (stereo unspecified) : 15.6 µM

Record OC(Cn1cncn1)(Cn1cncn1)c1ccc(F)cc1F [FLUCONAZOLE] , field MIC80: > 50 µM

Notebook: O=C1OC(COc2ccccc2)C=C1c1ccc(Br)cc1 (stereo unspecified) , MIC80 read as 31.2 µM

So, O=C1O/C(=C\c2ccccc2)C=C1c1ccc(Br)cc1 ? Its MIC80 was > 125 µM

Measured MIC80 of COCC1C=C(c2ccc(Br)cc2)C(=O)O1 (stereo unspecified) : 500 µM

Note to self: MIC80 recorded for C/C=C1/C=C(c2ccc(Br)cc2)C(=O)O1 was > 500 µM

The recorded MIC80 for O=C1OC(COc2ccc(I)cc2)C=C1c1ccc(Br)cc1 (stereo unspecified) is > 500 µM

MIC80 reported for this compound O=C1O/C(=C\CCCO)C=C1c1ccc(Br)cc1 : > 500 µM

Looking up O=C1O/C(=C\CO)C=C1c1ccc(Br)cc1 , I found its MIC80 recorded as 62.5 µM

The recorded MIC80 for entry O=C1OC(COc2cccc(Br)c2)C=C1c1ccc(Br)cc1 (stereo unspecified) equals 15.6 µM

---

test system: Pichia kudriavzevii; assay: Antifungal activity against Candida krusei E28 after 48 hrs by microdilution method; format: functional; conditions: E28, 48 h
Give MIC80 for every item shown.
Write the value in µM as a bare number.

MIC80 in this record for COC(=O)c1ccc(OCC2C=C(c3ccc(Br)cc3)C(=O)O2)cc1 (configuration not stated) : 15.6

Entry C=C1C=C(c2ccc(Br)cc2)C(=O)O1 — recorded MIC80 = 7.81

get_value(item= COc1ccc(OCC2C=C(c3ccc(Br)cc3)C(=O)O2)cc1 (configuration not stated) , readout=MIC80) returns 15.6

Item: O=C1OC(COc2ccc(C(=O)O)cc2)C=C1c1ccc(Br)cc1 (configuration not stated) | MIC80: 15.6

For this compound ( CC(=O)OCC1C=C(c2ccc(Br)cc2)C(=O)O1 (configuration not stated) ), measured MIC80 is 7.81

Record O=C1O/C(=C\CCO)C=C1c1ccc(Br)cc1 . Reported MIC80: 250

get_value(item= O=C1OCC=C1c1ccc(Br)cc1 , readout=MIC80) returns 500

According to the records, this compound CCOCC1C=C(c2ccc(Br)cc2)C(=O)O1 (configuration not stated) displays MIC80 of 250

MIC80 reading for O=C1OC(COc2ccc(O)cc2)C=C1c1ccc(Br)cc1 (configuration not stated) : 15.6

---

Consider the following molecules; for each one, report its MIC80.
system: Trichosporon beigelii; assay: Antifungal activity against Trichosporon beigelii 1188 after 48 hrs by microdilution method; type: functional; settings: Trichosporon beigelii, 1188, 48 h

The reported value for O=C1O/C(=C\CCO)C=C1c1ccc(Br)cc1 in terms of MIC80 is 125 µM

response.value for O=C1OC(COc2ccc(C(=O)O)cc2)C=C1c1ccc(Br)cc1 (stereo not drawn) (field: MIC80) = 15.6 µM

Short answer for CC(=O)OCC1C=C(c2ccc(Br)cc2)C(=O)O1 (stereo not drawn) : MIC80 was 7.81 µM

Field MIC80 (entry COCC1C=C(c2ccc(Br)cc2)C(=O)O1 (stereo not drawn) ) reads 125 µM

For this molecule ( OC(Cn1cncn1)(Cn1cncn1)c1ccc(F)cc1F [FLUCONAZOLE] ), measured MIC80 is 9 µM

get_value(item= O=C1OC(COc2ccccc2)C=C1c1ccc(Br)cc1 (stereo not drawn) , readout=MIC80) returns 31.2 µM

The recorded MIC80 for entry CCOCC1C=C(c2ccc(Br)cc2)C(=O)O1 (stereo not drawn) equals 250 µM

The molecule listed as C/C=C1/C=C(c2ccc(Br)cc2)C(=O)O1 shows MIC80 equal to > 500 µM

What the record says about O=C1OCC=C1c1ccc(Br)cc1 : MIC80 is 500 µM

Short answer for O=C1OC(COc2cccc(Br)c2)C=C1c1ccc(Br)cc1 (stereo not drawn) : MIC80 was 62.5 µM

Input O=C1O/C(=C\c2ccccc2)C=C1c1ccc(Br)cc1 . Output MIC80: > 125 µM

Memo: O=C1O/C(=C\CO)C=C1c1ccc(Br)cc1 , reported MIC80: 62.5 µM

MIC80 recorded for this molecule, COc1ccc(OCC2C=C(c3ccc(Br)cc3)C(=O)O2)cc1 (stereo not drawn) , is 15.6 µM

According to the records, this molecule CC(=O)OCC/C=C1/C=C(c2ccc(Br)cc2)C(=O)O1 displays MIC80 of > 500 µM

Entry under test: COC(=O)/C=C1\C=C(c2ccc(Br)cc2)C(=O)O1 . Its MIC80 was > 125 µM

Short answer for O=C1OC(COc2cccc(C(=O)O)c2)C=C1c1ccc(Br)cc1 (stereo not drawn) : MIC80 was 15.6 µM

MIC80 reported for this molecule O=C1O/C(=C\COC(=O)c2ccccc2)C=C1c1ccc(Br)cc1 : > 500 µM

The value of MIC80 measured for the molecule C=C1C=C(c2ccc(Br)cc2)C(=O)O1 turned out to be 15.6 µM

For O=C1OC(COc2ccc(O)cc2)C=C1c1ccc(Br)cc1 (stereo not drawn) the molecule record lists MIC80 as 15.6 µM

Looking up O=C1O/C(=C\CCCO)C=C1c1ccc(Br)cc1 , I found its MIC80 recorded as > 500 µM

Entry COC(=O)c1ccc(OCC2C=C(c3ccc(Br)cc3)C(=O)O2)cc1 (stereo not drawn) ; MIC80 = 15.6 µM

Per the record, O=C1OC(COc2ccc(I)cc2)C=C1c1ccc(Br)cc1 (stereo not drawn) has MIC80 of 500 µM

Value of measured MIC80 for the entry CC(=O)OC/C=C1/C=C(c2ccc(Br)cc2)C(=O)O1 : 31.2 µM

---

Field: log10 MIC80. Provide a value for each of the compounds that follow.
tested on: Clavispora lusitaniae; assay: Antifungal activity against Candida lusitaniae 2446/I after 48 hrs by microdilution method; type: functional
Could you please treat all values as log10 of MIC80 in µM?

Kindly note the recorded log10 MIC80 for COC(=O)c1ccc(OCC2C=C(c3ccc(Br)cc3)C(=O)O2)cc1 (stereo not drawn) , which is 1.19

For this compound ( OC(Cn1cncn1)(Cn1cncn1)c1ccc(F)cc1F ), measured log10 MIC80 is 0.52

# compound O=C1OC(COc2ccc(O)cc2)C=C1c1ccc(Br)cc1 (stereo not drawn) ; its log10 MIC80 = 0.89

Lab note: measured log10 MIC80 of O=C1OC(COc2ccccc2)C=C1c1ccc(Br)cc1 (stereo not drawn) was 0.89

Looking up O=C1OC(COc2cccc(Br)c2)C=C1c1ccc(Br)cc1 (stereo not drawn) , I see its log10 MIC80 listed as 1.19

Form: compound = CCOCC1C=C(c2ccc(Br)cc2)C(=O)O1 (stereo not drawn) ; log10 MIC80 = 2.40

// log10 MIC80 lookup, compound = CC(=O)OC/C=C1/C=C(c2ccc(Br)cc2)C(=O)O1 , result: 2.10

Reported log10 MIC80 of O=C1OC(COc2ccc(I)cc2)C=C1c1ccc(Br)cc1 (stereo not drawn) : 1.49

log10 MIC80 in this record for COCC1C=C(c2ccc(Br)cc2)C(=O)O1 (stereo not drawn) : 2.10

Form field log10 MIC80, entry CC(=O)OCC1C=C(c2ccc(Br)cc2)C(=O)O1 (stereo not drawn) : 0.89

Kindly note the recorded log10 MIC80 for C=C1C=C(c2ccc(Br)cc2)C(=O)O1 , which is 1.19

log10 MIC80 reading for O=C1O/C(=C\CO)C=C1c1ccc(Br)cc1 : 1.19

Field log10 MIC80 (entry O=C1OC(COc2ccc(C(=O)O)cc2)C=C1c1ccc(Br)cc1 (stereo not drawn) ) reads 0.89

log10 MIC80 recorded for this compound, COc1ccc(OCC2C=C(c3ccc(Br)cc3)C(=O)O2)cc1 (stereo not drawn) , is 0.89

// log10 MIC80 lookup, compound = O=C1O/C(=C\CCO)C=C1c1ccc(Br)cc1 , result: 2.40

Just so you know, measured log10 MIC80 for O=C1OCC=C1c1ccc(Br)cc1 came out at 2.70

# log10 MIC80 of O=C1OC(COc2cccc(C(=O)O)c2)C=C1c1ccc(Br)cc1 (stereo not drawn) = 0.89

---

test system: Candida parapsilosis; experiment: Antifungal activity against Candida parapsilosis ATCC 22019 after 48 hrs by microdilution method; assay type: functional; details: Lodderomyces parapsilosis, ATCC 22019, 48 h
Task for the reader: assign each of the following compounds its reported MIC80.
Could you give me the number in µM? Just the number is fine.

// MIC80 value for CCOCC1C=C(c2ccc(Br)cc2)C(=O)O1 (stereo not drawn) : 250

The recorded MIC80 for CC(=O)OCC1C=C(c2ccc(Br)cc2)C(=O)O1 (stereo not drawn) is 15.6

MIC80 in this record for O=C1OC(COc2ccccc2)C=C1c1ccc(Br)cc1 (stereo not drawn) : 31.2

response.value for COC(=O)c1ccc(OCC2C=C(c3ccc(Br)cc3)C(=O)O2)cc1 (stereo not drawn) (field: MIC80) = 15.6

For reference, reported MIC80 for O=C1O/C(=C\CCO)C=C1c1ccc(Br)cc1 stands at 125

The compound identified as O=C1OC(COc2ccc(O)cc2)C=C1c1ccc(Br)cc1 (stereo not drawn) registered its MIC80 at 15.6
